// data source = patent US20150190494A1

# target: T1, fH67 (UniProt P08603 321-443)
# T1 construct: domain: fH67; Flowed as analyte over immobilised fHbps in SPR; also called factor H
# T1 sequence: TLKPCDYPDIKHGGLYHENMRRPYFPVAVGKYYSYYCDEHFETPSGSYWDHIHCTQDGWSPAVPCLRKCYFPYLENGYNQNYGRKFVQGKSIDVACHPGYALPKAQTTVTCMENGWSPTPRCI
# methodNotes: SPR, fHbp immobilised on sensor chip, fH67 flowed over; mean ± SD of two determinations
reportedMetric: Kd (nM)
Answers are plain numbers, in nM.

{"binder": "WT V2 fHbp (other, also called wild type V2 fHbp; V2WT) CSSGGGGVAADIGAGLADALTAPLDHKDKSLQSLTLDQSVRKNEKLKLAAQGAEKTYGNGDSLNTGKLKNDKVSRFDFIRQIEVDGQLITLESGEFQIYKQDHSAVVALQIEKINNPDKIDSLINQRSFLVSGLGGEHTAFNQLPSGKAEYHGKAFSSDDPNGRLHYSIDFTKKQGYGRIEHLKTPEQNVELASAELKADEKSHAVILGDTRYGGEEKGTYHLALFGDRAQEIAGSATVKIREKVHEIGIAGKQ", "reportedMetric": "Kd", "reportedValue": 3.18}

Items follow; give Kd for each.
1. M5 V2 fHbp (S35G/D107S/L114F/S137G/G138D) (other) CSSGGGGVAADIGAGLADALTAPLDHKDKGLQSLTLDQSVRKNEKLKLAAQGAEKTYGNGDSLNTGKLKNDKVSRFDFIRQIEVDGQLITLESGEFQIYKQSHSAVVAFQIEKINNPDKIDSLINQRSFLVGDLGGEHTAFNQLPSGKAEYHGKAFSSDDPNGRLHYSIDFTKKQGYGRIEHLKTPEQNVELASAELKADEKSHAVILGDTRYGGEEKGTYHLALFGDRAQEIAGSATVKIREKVHEIGIAGKQ
2. M6 V2 fHbp (S35G/D107S/V112T/L114F/S137G/G138D) (other) CSSGGGGVAADIGAGLADALTAPLDHKDKGLQSLTLDQSVRKNEKLKLAAQGAEKTYGNGDSLNTGKLKNDKVSRFDFIRQIEVDGQLITLESGEFQIYKQSHSAVTAFQIEKINNPDKIDSLINQRSFLVGDLGGEHTAFNQLPSGKAEYHGKAFSSDDPNGRLHYSIDFTKKQGYGRIEHLKTPEQNVELASAELKADEKSHAVILGDTRYGGEEKGTYHLALFGDRAQEIAGSATVKIREKVHEIGIAGKQ

12.2
61.3
